Reported TGI is given for each of the following molecules.
Tested on: RPMI-8226 leukemia
Experiment: NCI tumour cell line growth inhibition, 48 h
Where a SMILES comes first, the peptide text is derived from it. The star is where a group is joined. Cbz = O=C(OCc1ccccc1)*
OUTCOME_MEASURE: TGI

1. Nc1ccccc1OCc1cc(=O)c(OCc2ccccc2)co1 :: > 100 µM
2. CC(C)c1ccc2[nH]c(O)c(C3=Nc4ccccc4C3=O)c2c1 :: > 100 µM
3. CN1CCN(CCCCN2c3ccccc3Sc3ccc(N=[N+]=[N-])cc32)CC1 :: 5.61 µM
4. CS/C(c1ccccc1)=[N+](/C)[O-] :: > 87.1 µM
5. Clc1nc(Cl)c(Cc2ccccc2)c(Cl)n1 :: > 100 µM
6. C/C(=N\NC(=S)NNC(=S)N(C)c1ccccc1)c1ccccn1 :: > 30.4 µM
7. O=C1/C(=C/c2ccc(Cl)cc2)COc2ccc(O)c(O)c21 :: 0.512 µM
8. C/C1=C\CC/C(C)=C/C=C(/C(C)C)CC/C(C(=O)O)=C/CC1 :: 62 µM
9. O=C(/C=C1/NC(=O)CS1)Nc1ccccc1 :: > 100 µM
10. CC12CC3CC(C1)CC(N=[N+]=[N-])(C3)C2 :: > 100 µM
11. [C-]#[N+]C1(C(=O)OCC)CC1 :: > 100 µM
12. CSC(=S)OC1C(CO[Si](C)(C)C(C)(C)C)OC2OC(C)(C)OC21 (stereo unspecified) :: 36.5 µM
13. CC(C)(c1ccc(OC#N)cc1)c1ccc(OC#N)cc1 :: > 72.5 µM
14. C/C(=N/NC(=S)NCCc1ccccn1)c1cnccn1 :: 80 µM
15. CCOC(=O)C(CC(=O)OC)NC(=O)C(CC(=O)OC)NC(=O)C(CC(=O)OC)NC(=O)C(CC(=O)OC)NC(=O)OCc1ccccc1 (stereo unspecified) (Cbz-D(OMe)D(OMe)D(OMe)D(OMe)-OEt; configuration not given here) :: > 100 µM
16. FC(F)(F)C1(C(F)(F)F)O[SiH]2(OC(C(F)(F)F)(C(F)(F)F)c3ccccc32)c2ccccc21 :: 97.4 µM
17. OC(C/C(=N\N=C(/CC(O)(C(F)(F)F)C(F)(F)F)c1ccccc1)c1ccccc1)(C(F)(F)F)C(F)(F)F :: > 10 µM
18. Cc1ccc(/C(O)=C/c2nc3ccccc3[nH]c2=O)c(C)c1 :: > 100 µM
19. CS(=O)(=O)Nc1cc(-c2ccc3ncnc(Nc4ccc5c(cnn5Cc5ccccc5F)c4)c3c2)cnc1Cl :: 4.18 µM
20. CCOC(=O)C(=CNC(=S)Nc1c(CC)cccc1CC)C(=O)OCC :: > 100 µM
21. O=C(/C=C/c1ccc(C(F)(F)F)cc1)c1ccc(Nc2nc(NCCO)nc(N3CCOCC3)n2)cc1 :: 5.71 µM
